- System: corn
- assay.summary: Test A pre-/postemergence herbicide test
- Type: in vivo, Zea mays
- measurement.context: Postemergence, 125 g ai/ha; 0 to 100 scale, 0 no effect, 100 complete control
The reader will find reported Plant response rating, Corn values listed item by item below.

[
  {
    "molecule": "O=C1NCC(c2ccc(F)c(F)c2)C1C(=O)Nc1ccccc1OC(F)(F)F (stereo not drawn) [Compound 54]",
    "assayed.system": "corn",
    "Plant response rating, Corn": 0
  },
  {
    "molecule": "O=C1NCC(c2cccc(OC(F)(F)C(F)F)c2)C1C(=O)Nc1ccccc1Cl (racemic) [Compound 125]",
    "assayed.system": "corn",
    "Plant response rating, Corn": 0
  },
  {
    "molecule": "O=C1NCC(c2ccccc2F)C1C(=O)Nc1ccccc1F (racemic) [Compound 85]",
    "assayed.system": "corn",
    "Plant response rating, Corn": 0
  }
]

----------
The reader will find reported Plant response rating, Ryegrass, Italian values listed item by item below.
- System: ryegrass, Italian
- assay.summary: Test A pre-/postemergence herbicide test
- Type: in vivo, Lolium multiflorum
- measurement.context: 125 g ai/ha; visual rating, 0 to 100 scale, 0 no effect, 100 complete control; approximately 10 days; preemergence
endpoint: Plant response rating, Ryegrass, Italian

[
  {
    "molecule": "O=C1NCC(c2cccc(S(F)(F)(F)(F)F)c2)C1C(=O)Nc1ccccc1F (racemic)",
    "endpoint": "Plant response rating, Ryegrass, Italian",
    "readout.number": 0
  },
  {
    "molecule": "O=C1NC[C@@H](c2cccc(C(F)(F)F)c2)[C@@H]1C(=O)Nc1cccc(F)c1F",
    "endpoint": "Plant response rating, Ryegrass, Italian",
    "readout.number": 0
  },
  {
    "molecule": "O=C1NCC(c2cccc3ccccc23)C1C(=O)Nc1ccccc1F (stereo not drawn)",
    "endpoint": "Plant response rating, Ryegrass, Italian",
    "readout.number": 0
  },
  {
    "molecule": "O=C1NC[C@H](c2cccc(C(F)(F)F)c2)[C@H]1C(=O)Nc1cccc(F)c1F",
    "endpoint": "Plant response rating, Ryegrass, Italian",
    "readout.number": 40
  },
  {
    "molecule": "O=C1NC[C@H](c2cccc(C(F)(F)F)c2)[C@H]1C(=O)Nc1ccccc1F",
    "endpoint": "Plant response rating, Ryegrass, Italian",
    "readout.number": 20
  },
  {
    "molecule": "O=C1NCC(c2cccc(C(F)F)c2)C1C(=O)Nc1cccc(F)c1F (racemic)",
    "endpoint": "Plant response rating, Ryegrass, Italian",
    "readout.number": 20
  },
  {
    "molecule": "Cc1ccccc1NC(=O)C1C(=O)NCC1c1ccc(OC(F)F)cc1 (stereo not drawn)",
    "endpoint": "Plant response rating, Ryegrass, Italian",
    "readout.number": 0
  },
  {
    "molecule": "O=C1NCC(c2cccc(OC(F)(F)C(F)F)c2)C1C(=O)Nc1ccccc1Cl (racemic)",
    "endpoint": "Plant response rating, Ryegrass, Italian",
    "readout.number": 0
  },
  {
    "molecule": "O=C1NCC(c2ccc(F)cc2)C1C(=O)Nc1ccccc1F (stereo not drawn)",
    "endpoint": "Plant response rating, Ryegrass, Italian",
    "readout.number": 0
  }
]

----------
The reader will find reported Plant response rating, Sedge, Umbrella values listed item by item below.
- Test system: sedge, umbrella
- assay.summary: Test C flooded paddy test
- Type: in vivo, Cyperus difformis
- measurement.context: Flood, 62 g ai/ha; scale of 0 to 100 where 0 is no effect and 100 is complete control; 13 to 15 days
- From the text: Plant species in the flooded paddy test consisted of rice (Oryza sativa), sedge, umbrella (small-flower umbrella sedge, Cyperus difformis), ducksalad (Heteranthera limosa), and barnyardgrass (Echinochloa crus-galli) grown to the 2-leaf stage for testing. […] Treated plants and controls were maintained in a greenhouse for 13 to 15 days, after which time all species were compared to controls and visually evaluated. […]

[
  {
    "compound": "CC(C)c1cccc(C2CNC(=O)C2C(=O)Nc2ccccc2F)c1 (stereo not shown)",
    "Plant response rating, Sedge, Umbrella": 0
  },
  {
    "compound": "O=C1NCC(c2cccc(OC(F)F)c2)C1C(=O)Nc1ccccc1F (stereo not shown)",
    "Plant response rating, Sedge, Umbrella": 0
  },
  {
    "compound": "O=C1NCC(c2ccc(Cl)c(F)c2)C1C(=O)Nc1cccc(F)c1F (stereo not shown)",
    "Plant response rating, Sedge, Umbrella": 40
  },
  {
    "compound": "O=C1NCC(c2ccc(Cl)c(Cl)c2)C1C(=O)Nc1cccc(F)c1F (racemic)",
    "Plant response rating, Sedge, Umbrella": 0
  }
]

----------
- Tested on: kochia
- assay.summary: Test A pre-/postemergence herbicide test
- Assay type: in vivo, Kochia scoparia
- measurement.context: preemergence, 500 g ai/ha; 0 to 100 scale
- Text: […]
endpoint: Plant response rating, Kochia

[
  {
    "molecule": "Cc1ccc(C2CNC(=O)C2C(=O)Nc2ccc(F)cc2F)cc1 (racemic)",
    "readout.number": 90
  },
  {
    "molecule": "COc1cc(C2CNC(=O)C2C(=O)Nc2ccc(F)cc2F)ccc1F (racemic)",
    "readout.number": 0
  },
  {
    "molecule": "Cc1ccccc1NC(=O)C1C(=O)NCC1c1cccc(C(F)(F)F)c1 (racemic)",
    "readout.number": 0
  },
  {
    "molecule": "O=C1NCC(c2cccc(OC(F)(F)C(F)F)c2)C1C(=O)Nc1cccc(F)c1F (racemic)",
    "readout.number": 90
  },
  {
    "molecule": "O=C1NCC(c2ccc(F)cc2)C1C(=O)Nc1ccc(F)c(F)c1F (racemic)",
    "readout.number": 80
  },
  {
    "molecule": "Cc1ccc(C2CNC(=O)C2C(=O)Nc2cccc(F)c2F)cc1F (racemic)",
    "readout.number": 30
  }
]

----------
- Tested on: oat, wild
- assay.summary: Test D pre-/postemergence herbicide test
- Assay type: in vivo, Avena fatua
- measurement.context: Postemergence; 250 g ai/ha; Oat, Wild; scale 0 to 100
endpoint: Plant response rating

[
  {
    "molecule": "O=C1NCC(c2ccc(F)c(F)c2)C1C(=O)Nc1ccccc1C(F)(F)F (racemic)",
    "readout.number": 5
  },
  {
    "molecule": "O=C1NCC(c2ccc(Cl)c(F)c2)C1C(=O)Nc1cccc(F)c1F (stereo not shown)",
    "readout.number": 0
  },
  {
    "molecule": "O=C1NCC(c2ccc(F)c(F)c2)C1C(=O)Nc1cccc(F)c1F (stereo not shown)",
    "readout.number": 0
  },
  {
    "molecule": "O=C1NCC(c2ccc(C(F)(F)F)cc2)C1C(=O)Nc1cccc(F)c1F (racemic)",
    "readout.number": 15
  }
]

----------
- System: ryegrass, Italian
- assay.summary: Test A pre-/postemergence herbicide test
- Assay type: in vivo, Lolium multiflorum
- measurement.context: Preemergence, 500 g ai/ha; visual rating on 0 to 100 scale (0 no effect, 100 complete control)
Criterion: Ryegrass, Italian plant response rating meeting or surpassing 20. Met: True. Not met: False.

[
  {
    "compound": "CC(C)c1cccc(C2CNC(=O)C2C(=O)Nc2cccc(F)c2F)c1 (stereo not drawn)",
    "class.label": "True"
  },
  {
    "compound": "O=C1NCC(c2cccc(Br)c2)C1C(=O)Nc1ccc(F)c(F)c1F (stereo not drawn)",
    "class.label": "True"
  },
  {
    "compound": "O=C1NCC(c2cnn(CC(F)(F)F)c2)C1C(=O)Nc1ccccc1C(F)(F)F (stereo not drawn)",
    "class.label": "False"
  },
  {
    "compound": "O=C1NCC(c2ccc(SC(F)(F)F)cc2)C1C(=O)Nc1ccccc1F (stereo not drawn)",
    "class.label": "False"
  },
  {
    "compound": "O=C1NCC(c2ccc(Br)c(Br)c2)C1C(=O)Nc1ccccc1Cl (stereo not drawn)",
    "class.label": "False"
  },
  {
    "compound": "O=C1NCC(c2ccc(OC(F)F)cc2)C1C(=O)Nc1cccc(F)c1F (racemic)",
    "class.label": "False"
  },
  {
    "compound": "CSc1cccc(C2CNC(=O)C2C(=O)Nc2ccccc2Cl)c1 (stereo not drawn)",
    "class.label": "True"
  }
]

----------
- System: giant foxtail
- assay.summary: Test A pre-/postemergence herbicide test
- Assay type: in vivo, Setaria faberii
- measurement.context: Postemergence, 500 g ai/ha; 0 to 100 scale (0 no effect, 100 complete control)
The reader will find reported Plant response rating, Foxtail, Giant values listed item by item below.

[
  {
    "molecule": "O=C1NCC(c2ccccc2)C1C(=O)Nc1ccccc1Cl (racemic)",
    "Plant response rating, Foxtail, Giant": 50
  },
  {
    "molecule": "CN1CC(c2ccc(F)c(F)c2)C(C(=O)Nc2cccc(F)c2F)C1=O (stereo not shown)",
    "Plant response rating, Foxtail, Giant": 80
  },
  {
    "molecule": "O=C1NCC(c2cccc(C(F)(F)F)c2)C1C(=O)Nc1ccccn1 (racemic)",
    "Plant response rating, Foxtail, Giant": 90
  },
  {
    "molecule": "O=C1NCC(c2ccc(Cl)c(Cl)c2)C1C(=O)Nc1ccccc1OC(F)(F)F (racemic)",
    "Plant response rating, Foxtail, Giant": 40
  }
]
